Hey, just so you know, these numbers are from patent US20070128217A1.

Test system: control sera (pooled serum of ten healthy LUMC hospital workers; commercial negative donor pooled serum from the Dutch bloodbank)
Type: binding, human
Set-up: unit not given here
Property: Binding of Control serum LUMC to linear peptides; scope: individual sequences
Property measured: Binding of Control serum LUMC to linear peptides

[[record]]
query_sequence = "NNTASWFTALTQHGK"
reported_value = 0.7

[[record]]
query_sequence = "KRTATKQYNVTQAFG"
reported_value = 0.8

[[record]]
query_sequence = "IYFLQCINACRIIMR"
reported_value = 0.7

[[record]]
query_sequence = "SPLFLIVAALVFLIL"
reported_value = 0.3

[[record]]
query_sequence = "PNVTINCQDPAGGAL"
reported_value = 0.7

[[record]]
query_sequence = "SKKTTKLVVILRIGT"
reported_value = 0.8

[[record]]
query_sequence = "TALALLLLDRLNQLE"
reported_value = 0.7

[[record]]
query_sequence = "QLESTQITTDTGIEN"
reported_value = 0.5

[[record]]
query_sequence = "TQITTDTGIENATFF"
reported_value = 0.8

[[record]]
query_sequence = "MRCWLCWKCKSKNPL"
reported_value = 0.8

[[record]]
query_sequence = "LVLKMLHSSSLTSLL"
reported_value = 0.2

[[record]]
query_sequence = "QQELYSPLFLIVAAL"
reported_value = 0.4

[[record]]
query_sequence = "GTRNPNNNAATVLQL"
reported_value = 0.8

[[record]]
query_sequence = "SGKGQQQQGQTVTKK"
reported_value = 1.1

[[record]]
query_sequence = "LQLPQGTTLPKGFYA"
reported_value = 0.8

[[record]]
query_sequence = "IPLQASLPFGWLVIG"
reported_value = 0.8

[[record]]
query_sequence = "TPKDHIGTRNPNNNA"
reported_value = 0.9

[[record]]
query_sequence = "LESKVSGKGQQQQGQ"
reported_value = 0.7


---

System: antibodies in sera from SARS patients (sera 1a, 1b, 2, 6, 37, 62, London, SARS-yellow, SARS-green)
Assay type: binding, human
Property measured: Binding of serum 1a to linear peptides of protein X5 of SARS-CoV Urbani

[[record]]
query_sequence = "ILVRYNTRGNTYSTA"
reported_value = 0.7

[[record]]
query_sequence = "HRWHTMVQTCTPNVT"
reported_value = 0.7

[[record]]
query_sequence = "LGKVLPFHRWHTMVQ"
reported_value = 0.7

[[record]]
query_sequence = "GGALIARCWYLHEGH"
reported_value = 0.8

[[record]]
query_sequence = "VRYNTRGNTYSTAWL"
reported_value = 0.7


---

Test system: antibodies in sera from SARS patients (sera 1a, 1b, 2, 6, 37, 62, London, SARS-yellow, SARS-green)
Format: binding, human
Consider the cut-off 0.7. If the recorded Binding of serum 1a to linear peptides of protein X1 of SARS-CoV Urbani is strictly smaller, the label is Criterion met; if not, the label is Criterion not met.

[[record]]
query_sequence = "IENATFFIFNKLVKD"
category = "Criterion met"

[[record]]
query_sequence = "PLLYDANYFVCWHTH"
category = "Criterion not met"

[[record]]
query_sequence = "DYVVVHGYFTEVYYQ"
category = "Criterion met"

[[record]]
query_sequence = "FICNLLLLFVTIYSH"
category = "Criterion met"

[[record]]
query_sequence = "YKGFQFICNLLLLFV"
category = "Criterion not met"

[[record]]
query_sequence = "VIGVAFLAVFQSATK"
category = "Criterion met"

[[record]]
query_sequence = "TATIPLQASLPFGWL"
category = "Criterion not met"

[[record]]
query_sequence = "MDLFMRFFTLGSITA"
category = "Criterion not met"

[[record]]
query_sequence = "KGFQFICNLLLLFVT"
category = "Criterion met"

[[record]]
query_sequence = "LYDANYFVCWHTHNY"
category = "Criterion not met"

[[record]]
query_sequence = "FQFICNLLLLFVTIY"
category = "Criterion met"

[[record]]
query_sequence = "SHLLLVAAGMEAQFL"
category = "Criterion not met"

[[record]]
query_sequence = "EGDGISTPKLKEDYQ"
category = "Criterion met"

[[record]]
query_sequence = "LLYDANYFVCWHTHN"
category = "Criterion not met"

[[record]]
query_sequence = "HLLLVAAGMEAQFLY"
category = "Criterion not met"

[[record]]
query_sequence = "VFQSATKIIALNKRW"
category = "Criterion not met"

[[record]]
query_sequence = "LNKRWQLALYKGFQF"
category = "Criterion met"


---

Test system: antibodies in sera from SARS patients (sera 1a, 1b, 2, 6, 37, 62, London, SARS-yellow, SARS-green)
Assay type: binding, human
Property: Binding of serum 62 to linear peptide (PEPSCAN-ELISA); scope: individual sequences
Property measured: Binding of serum 62 to linear peptide (PEPSCAN-ELISA)

[[record]]
query_sequence = "SKVSGKGQQQQGQTV"
reported_value = 0.6

[[record]]
query_sequence = "YNVTQAFGRRGPEQT"
reported_value = 0.7

[[record]]
query_sequence = "EGSRGGSQASSRSSS"
reported_value = 0.8

[[record]]
query_sequence = "FGDQDLIRQGTDYKH"
reported_value = 0.7


---

Property: Binding of serum SARS-green to looped/cyclic peptides of protein M of SARS-CoV Urbani; scope: individual sequences
Test system: antibodies in sera from SARS patients (sera 1a, 1b, 2, 6, 37, 62, London, SARS-yellow, SARS-green)
Format: binding, human
Property measured: Binding of serum SARS-green to looped/cyclic peptides of protein M of SARS-CoV Urbani

[[record]]
query_sequence = "RVGTDSGFAAYNRYR"
reported_value = 0.3

[[record]]
query_sequence = "LVIGFLFLAWIMLLQ"
reported_value = 0.3

[[record]]
query_sequence = "TLACFVLAAVYRINW"
reported_value = 0.2

[[record]]
query_sequence = "VTLACFVLAAVYRIN"
reported_value = 0.2

[[record]]
query_sequence = "SMWSFNPETNILLNV"
reported_value = 0.2

[[record]]
query_sequence = "LLQFAYSNRNRFLYI"
reported_value = 0.1

[[record]]
query_sequence = "LPKEITVATSRTLSY"
reported_value = 0.3

[[record]]
query_sequence = "AIAMACIVGLMWLSY"
reported_value = 4.4

[[record]]
query_sequence = "EITVATSRTLSYYKL"
reported_value = 0.3

[[record]]
query_sequence = "RTLSYYKLGASQRVG"
reported_value = 0.4

[[record]]
query_sequence = "LLEQWNLVIGFLFLA"
reported_value = 0.2

[[record]]
query_sequence = "TVATSRTLSYYKLGA"
reported_value = 0.4

[[record]]
query_sequence = "KDLPKEITVATSRTL"
reported_value = 0.3

[[record]]
query_sequence = "VIGFLFLAWIMLLQF"
reported_value = 0.3

[[record]]
query_sequence = "GFLFLAWIMLLQFAY"
reported_value = 0.3

[[record]]
query_sequence = "LVFLWLLWPVTLACF"
reported_value = 0.3

[[record]]
query_sequence = "GTDSGFAAYNRYRIG"
reported_value = 0.4

[[record]]
query_sequence = "RTRSMWSFNPETNIL"
reported_value = 0.0


---

Property: Binding of a rabbit serum to looped peptides; scope: individual sequences
System: rabbit serum obtained by immunizing a rabbit with the SARS-CoV strain Frankfurt 1
Assay type: binding
Set-up: unit not given here
Property measured: Binding of a rabbit serum to looped peptides

[[record]]
query_sequence = "GTQVLKTMSLYMAIS"
reported_value = 0.4

[[record]]
query_sequence = "YMAISPKFTTSLSLH"
reported_value = 0.5

[[record]]
query_sequence = "VHATATIPLQASLPF"
reported_value = 0.6

[[record]]
query_sequence = "ISTPKLKEDYQIGGY"
reported_value = 0.4

[[record]]
query_sequence = "TQSTALQELLIQQWI"
reported_value = 0.4

[[record]]
query_sequence = "TLGSITAQPVKIDNA"
reported_value = 0.4

[[record]]
query_sequence = "MSLYMAISPKFTTSL"
reported_value = 0.5

[[record]]
query_sequence = "TMTTVYHITVSQIQL"
reported_value = 0.4

[[record]]
query_sequence = "SRRRLLACLCKHKKV"
reported_value = 0.4

[[record]]
query_sequence = "LGSITAQPVKIDNAS"
reported_value = 0.4

[[record]]
query_sequence = "PLLYDANYFVCWHTH"
reported_value = 0.5

[[record]]
query_sequence = "LYALIYFLQCINACR"
reported_value = 0.6

[[record]]
query_sequence = "IVVTEGDGISTPKLK"
reported_value = 0.4


---

Test system: control sera (pooled serum of ten healthy LUMC hospital workers; commercial negative donor pooled serum from the Dutch bloodbank)
Type: binding, human
Set-up: unit not given here
Property measured: Binding of Control serum LUMC to linear peptides of the protein M of SARS-CoV Urbani

[[record]]
query_sequence = "ASQRVGTDSGFAAYN"
reported_value = 0.5

[[record]]
query_sequence = "KDLPKEITVATSRTL"
reported_value = 0.6

[[record]]
query_sequence = "GFAAYNRYRIGNYKL"
reported_value = 0.8

[[record]]
query_sequence = "LYIIKLVFLWLLWPV"
reported_value = 0.7

[[record]]
query_sequence = "GIAIAMACIVGLMWL"
reported_value = 0.5

[[record]]
query_sequence = "GASQRVGTDSGFAAY"
reported_value = 0.9

[[record]]
query_sequence = "NWVTGGIAIAMACIV"
reported_value = 0.8

[[record]]
query_sequence = "KLGASQRVGTDSGFA"
reported_value = 0.9

[[record]]
query_sequence = "SFRLFARTRSMWSFN"
reported_value = 0.4

[[record]]
query_sequence = "RTRSMWSFNPETNIL"
reported_value = 0.7

[[record]]
query_sequence = "LAWIMLLQFAYSNRN"
reported_value = 0.2

[[record]]
query_sequence = "NPETNILLNVPLRGT"
reported_value = 0.4

[[record]]
query_sequence = "LAAVYRINWVTGGIA"
reported_value = 0.5

[[record]]
query_sequence = "DNGTITVEELKQLLE"
reported_value = 0.8

[[record]]
query_sequence = "LNTDHAGSNDNIALL"
reported_value = 0.7

[[record]]
query_sequence = "CDIKDLPKEITVATS"
reported_value = 0.2

[[record]]
query_sequence = "RSMWSFNPETNILLN"
reported_value = 0.5

[[record]]
query_sequence = "GLMWLSYFVASFRLF"
reported_value = 0.2

[[record]]
query_sequence = "PLGRCDIKDLPKEIT"
reported_value = 0.4

[[record]]
query_sequence = "LMWLSYFVASFRLFA"
reported_value = 0.4

[[record]]
query_sequence = "VASFRLFARTRSMWS"
reported_value = 0.4

[[record]]
query_sequence = "AMACIVGLMWLSYFV"
reported_value = 0.3

[[record]]
query_sequence = "AIAMACIVGLMWLSY"
reported_value = 0.3

[[record]]
query_sequence = "MLLQFAYSNRNRFLY"
reported_value = 0.3

[[record]]
query_sequence = "NRFLYIIKLVFLWLL"
reported_value = 0.3

